Where do these numbers come from? They come from patent US20240018161A1.

Target: CFTR-mediated chloride transport in human intestinal epithelial enteroid cells (Homo sapiens, UniProt P13569)
Sequence (P13569 with tags, fused parts or gaps DEL508-508): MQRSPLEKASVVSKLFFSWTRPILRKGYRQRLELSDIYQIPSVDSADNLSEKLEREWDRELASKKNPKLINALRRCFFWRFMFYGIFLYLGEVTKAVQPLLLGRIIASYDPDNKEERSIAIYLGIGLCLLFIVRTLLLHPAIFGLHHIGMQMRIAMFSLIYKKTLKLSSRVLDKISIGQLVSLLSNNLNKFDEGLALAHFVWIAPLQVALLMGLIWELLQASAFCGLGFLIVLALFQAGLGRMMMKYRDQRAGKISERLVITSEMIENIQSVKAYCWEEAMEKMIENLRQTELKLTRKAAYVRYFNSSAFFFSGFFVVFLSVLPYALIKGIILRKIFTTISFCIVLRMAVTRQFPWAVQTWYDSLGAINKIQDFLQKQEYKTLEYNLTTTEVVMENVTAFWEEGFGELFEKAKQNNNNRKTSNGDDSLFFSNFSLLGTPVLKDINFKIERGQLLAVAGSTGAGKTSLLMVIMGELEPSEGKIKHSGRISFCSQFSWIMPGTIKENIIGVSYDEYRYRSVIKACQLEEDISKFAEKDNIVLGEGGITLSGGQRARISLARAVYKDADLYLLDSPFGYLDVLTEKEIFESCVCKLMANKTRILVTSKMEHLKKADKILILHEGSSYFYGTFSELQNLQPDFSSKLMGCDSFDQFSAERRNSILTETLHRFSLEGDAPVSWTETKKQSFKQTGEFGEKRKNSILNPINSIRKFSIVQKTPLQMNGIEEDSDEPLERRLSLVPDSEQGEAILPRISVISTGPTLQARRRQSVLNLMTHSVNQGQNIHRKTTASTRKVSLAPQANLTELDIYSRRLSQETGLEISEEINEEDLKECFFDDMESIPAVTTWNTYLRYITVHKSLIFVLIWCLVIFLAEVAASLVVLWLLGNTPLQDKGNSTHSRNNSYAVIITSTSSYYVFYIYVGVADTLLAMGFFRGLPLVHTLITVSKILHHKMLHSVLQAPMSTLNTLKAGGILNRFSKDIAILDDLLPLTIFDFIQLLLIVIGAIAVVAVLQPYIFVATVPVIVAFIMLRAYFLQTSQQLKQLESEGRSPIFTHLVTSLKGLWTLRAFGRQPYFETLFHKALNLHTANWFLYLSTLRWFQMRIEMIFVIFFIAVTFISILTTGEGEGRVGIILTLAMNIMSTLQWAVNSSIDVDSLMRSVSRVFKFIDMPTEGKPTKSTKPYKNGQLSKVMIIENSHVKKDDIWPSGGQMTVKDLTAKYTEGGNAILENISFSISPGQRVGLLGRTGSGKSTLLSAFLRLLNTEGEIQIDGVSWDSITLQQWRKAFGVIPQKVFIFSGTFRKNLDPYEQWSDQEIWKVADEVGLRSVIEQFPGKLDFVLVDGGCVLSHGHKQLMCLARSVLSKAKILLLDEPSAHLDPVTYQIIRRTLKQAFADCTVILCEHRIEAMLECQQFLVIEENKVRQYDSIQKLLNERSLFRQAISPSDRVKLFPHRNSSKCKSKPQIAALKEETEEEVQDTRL
Test: Membrane potential dye, Enteroid Assay A
Format: cell-based
Conditions: enteroid cells incubated with test compound 18-24 hours; acute 10 μM forskolin and 300 nM N-[2,4-bis(1,1-dimethylethyl)-5-hydroxyphenyl]-1,4-dihydro-4-oxoquinoline-3-carboxamide; read-out: Ent. A EC50
# key: entry, value: EC50
measurementType: EC50

                                    compound     reading
 0  Cc1cccc(C)c1-c1cc2nc(n1)NS(=O)(=O)c1cccc(c1)C(=O)N1CCN(C(C)C)C[C@@H]1CO2  3 to 30 µM
 1  Cc1cccc(C)c1-c1cc2nc(n1)NS(=O)(=O)c1cccc(c1)C(=O)N1CCN(CC3CC3)C[C@H](C1)O2      < 1 µM
 2  Cc1cccc(C)c1-c1cc2nc(n1)NS(=O)(=O)c1cccc(c1)C(=O)N1CC(NC(=O)OC(C)(C)C)CC(C1)O2 (centres unmarked)   1 to 3 µM
 3  Cc1cccc(C)c1-c1cc2nc(n1)NS(=O)(=O)c1cccc(c1)C(=O)N1CCN(CCC(C)C)C[C@@H]1CO2   1 to 3 µM
 4  Cc1cccc(C)c1-c1cc2nc(n1)NS(=O)(=O)c1cccc(c1)C(=O)N1CCCC(O2)C1CC(C)C (single isomer, unassigned) [Compound 231]      < 1 µM
 5  Cc1cccc(C)c1-c1cc2nc(n1)NS(=O)(=O)c1cccc(c1)C(=O)N1CCN(CCc3ccccc3)CC1CO2 (centres unmarked)      < 1 µM
 6  Cc1cccc(C)c1-c1cc2nc(n1)NS(=O)(=O)c1cccc(c1)C(=O)N1Cc3ccccc3C[C@H]1CO2      < 1 µM
 7  Cc1cccc(C)c1-c1cc2nc(n1)NS(=O)(=O)c1cccc(c1)C(=O)N1CCN(CCCC(C)(C)C)C[C@@H]1CO2      < 1 µM
 8  Cc1cccc(C)c1-c1cc2nc(n1)NS(=O)(=O)c1cccc(c1)C(=O)N1CCN(C(=O)OC(C)(C)C)CC1C(C)O2 (centres unmarked)   1 to 3 µM
 9  Cc1cccc(C)c1-c1cc2nc(n1)NS(=O)(=O)c1cccc(c1)C(=O)N1CC[C@@H](C1)O2  3 to 30 µM
10  Cc1cccc(C)c1-c1cc2nc(n1)NS(=O)(=O)c1cccc(c1)C(=O)N1CCN(C(=O)OC(C)(C)C)C(CO2)C1 (centres unmarked)      < 1 µM
11  Cc1cccc(C)c1-c1cc2nc(n1)NS(=O)(=O)c1cccc(c1)NC(=O)CN1CCCC(C1)O2 (centres unmarked)   1 to 3 µM
12  Cc1cccc(C)c1-c1cc2nc(n1)NS(=O)(=O)c1cccc(c1)C(=O)N1CCN(CCc3ccccc3)C[C@@H]1CO2      < 1 µM
13  Cc1cccc(C)c1-c1cc2nc(n1)NS(=O)(=O)c1cccc(c1)C(=O)N1CCN(CC3CCOCC3)C[C@@H]1CO2   1 to 3 µM
14  Cc1cccc(C)c1-c1cc2nc(n1)NS(=O)(=O)c1cccc(c1)C(=O)N1CCN(CCC(C)(C)C)CC1CO2 (centres unmarked)      < 1 µM
15  Cc1cccc(C)c1-c1cc2nc(n1)NS(=O)(=O)c1cccc(c1)C(=O)N1CCC[C@@H]1CO2  3 to 30 µM
16  Cc1cccc(C)c1-c1cc2nc(n1)NS(=O)(=O)c1cccc(c1)C(=O)N1CCN(CC3CCCCC3)C[C@@H]1CO2      < 1 µM
17  Cc1cccc(C)c1-c1cc2nc(n1)NS(=O)(=O)c1cccc(c1)C(=O)N1CCN(CCC3CCOCC3)C[C@@H]1CO2  3 to 30 µM
18  Cc1cccc(C)c1-c1cc2nc(n1)NS(=O)(=O)c1cccc(c1)C(=O)N1CCN(Cc3ccc(O)cc3)C[C@@H]1CO2   1 to 3 µM
19  Cc1cccc(C)c1-c1cc2nc(n1)NS(=O)(=O)c1cccc(c1)C(=O)N1CCN(CCCC(C)(C)C)CC(C1)O2 (centres unmarked)      < 1 µM
20  Cc1cccc(C)c1-c1cc2nc(n1)NS(=O)(=O)c1cccc(c1)C(=O)N1CC(CCC1c1ccccc1)O2 (single isomer, unassigned) [Compound 226]      < 1 µM
21  Cc1cccc(C)c1-c1cc2nc(n1)NS(=O)(=O)c1cccc(c1)C(=O)N1CCN(Cc3ccccc3)C[C@@H]1CO2      < 1 µM
22  Cc1cccc(C)c1-c1cc2nc(n1)NS(=O)(=O)c1cccc(c1)C(=O)N1CCN(CCC3(C(F)(F)F)CC3)C[C@@H]1CO2      < 1 µM
23  Cc1cccc(C)c1-c1cc2nc(n1)NS(=O)(=O)c1cccc(c1)C(=O)N1CCN(CC3(NC(=O)OC(C)(C)C)CCCC3)C[C@@H]1CO2      < 1 µM
24  Cc1cccc(C)c1-c1cc2nc(n1)NS(=O)(=O)c1cccc(c1)C(=O)N1CCN(C(=O)CC(C)(C)C)CC1CO2 (centres unmarked)  3 to 30 µM
25  Cc1cccc(C)c1-c1cc2nc(n1)NS(=O)(=O)c1cccc(c1)C(=O)N1CC(CCC1c1ccccc1)O2 (single isomer, unassigned) [Compound 225]      < 1 µM
